The entries below are paired with their reported pKi.
Molecular target: UniProtKB Q9QZN9
Sequence (Q9QZN9 whole entry): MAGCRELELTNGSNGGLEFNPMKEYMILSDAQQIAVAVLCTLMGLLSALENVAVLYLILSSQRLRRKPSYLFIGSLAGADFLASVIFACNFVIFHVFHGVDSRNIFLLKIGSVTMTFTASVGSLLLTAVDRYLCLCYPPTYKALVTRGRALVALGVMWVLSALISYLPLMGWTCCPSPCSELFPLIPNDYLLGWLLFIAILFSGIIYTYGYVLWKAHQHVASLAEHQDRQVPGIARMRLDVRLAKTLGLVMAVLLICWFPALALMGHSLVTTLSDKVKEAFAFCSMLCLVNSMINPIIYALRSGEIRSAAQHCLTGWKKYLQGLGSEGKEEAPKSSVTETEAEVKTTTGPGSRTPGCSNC
Test: rat CB2 radioligand binding assay ([3H]CP 55,940 competition)
Conditions: HEK293 membranes, 0.5 nM [3H]CP 55,940; read-out: rat CB2 (Ki)
Experimental: The CB1 and CB2 radioligand binding assays described herein are utilized to ascertain the affinity of compounds of the present application for binding to CB2 relative to CB1 receptors. HEK293 cells stably expressing rat CB2 receptors were grown until a confluent monolayer was formed. […] The bound activity was counted in a TopCount using Microscint-20. […]
pKi: −log10 of the molar value.
Quantity: pKi

CCCCn1nc(C(C)(C)C)s/c1=N\C(=O)c1cc(C(F)(F)F)ccc1NN=C(C)C :: 6.92
CCCCn1nc(C(C)(C)C)s/c1=N\C(=O)c1cc(C(F)(F)F)ccc1ON=C(C)N :: 8.44
COCCn1nc(C(C)(C)C)s/c1=N\C(=O)c1cc(C(F)(F)F)ccc1ONC(C)(C)C :: 8.44
CCCCn1ccc(C(C)(C)C)c/c1=N\C(=O)c1cc(C(F)(F)F)ccc1ONC(C)(C)C :: 8.03
